biological target: human SSTR2 (Homo sapiens); construct: expressed in transfected cells; host or cells: CHO (dhfr-) cells, strain SSTR2-HS5-9, plasmid pAC01 (pAKKO-111 vector); assay: Binding inhibition of 125I-somatostatin-14, SSTR2 membrane fraction; conditions: 125I-somatostatin-14 binding, CHO membrane fraction, 25° C. 60 minutes, Hill plots
Sequence (P30874 whole entry): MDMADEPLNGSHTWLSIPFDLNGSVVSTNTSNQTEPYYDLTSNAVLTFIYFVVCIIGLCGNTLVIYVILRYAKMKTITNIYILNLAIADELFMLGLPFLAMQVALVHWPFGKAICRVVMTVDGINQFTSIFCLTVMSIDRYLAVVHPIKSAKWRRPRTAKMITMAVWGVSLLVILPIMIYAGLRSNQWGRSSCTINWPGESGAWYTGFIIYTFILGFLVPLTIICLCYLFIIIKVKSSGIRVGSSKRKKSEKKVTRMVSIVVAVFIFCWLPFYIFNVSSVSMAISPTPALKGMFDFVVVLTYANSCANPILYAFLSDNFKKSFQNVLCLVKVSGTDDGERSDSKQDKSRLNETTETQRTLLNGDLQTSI
VALUE TYPE: IC50
Quote the value and follow it with the unit of measurement.

Please review the following examples before continuing.
INSERT INTO measurements (compound, result_value) VALUES
  ('CC(c1c[nH]c2ccccc12)C(NC(=O)N1CCC(Oc2ccc(O)cc2)CC1)C(=O)N1C[C@@H](CN(C)C)Cc2cc(Cl)ccc21 (single isomer, unassigned; (-))', '0.05 nM'),
  ('C[C@@H](c1c[nH]c2ccccc12)[C@@H](NC(=O)N1CCN(C(=O)c2ccccc2)CC1)C(=O)N1C[C@@H](CN(C)C)Cc2cc(Cl)ccc21', '0.05 nM'),
  ('C[C@@H](c1c[nH]c2ccccc12)[C@@H](NC(=O)N1CCC(Oc2ccccc2)CC1)C(=O)N1C[C@@H](CN(C)C)Cc2cc(Cl)ccc21', '0.1 nM'),
  ('C[C@@H](c1c[nH]c2ccccc12)[C@@H](NC(=O)C1CCN(C(=O)c2cc3ccccc3n2C)CC1)C(=O)N1C[C@@H](CN(C)C)Cc2cc(Cl)ccc21', '0.2 nM');

We now examine a further compound.
Request: Tell me the measured IC50 of C[C@@H](c1c[nH]c2ccccc12)[C@@H](NC(=O)N1CCC(Oc2ccc(F)cc2)CC1)C(=O)N1C[C@@H](CN(C)C)Cc2cc(Cl)ccc21 , please.
Response: 0.1 nM
